- System: RIVA
- Procedure summary: growth inhibition by drug alone (1 - RLU/untreated control) (fraction); higher = stronger inhibition
- Setup conditions: 100 nM; time (day): 3; 177Lu-lilotomab satetraxetan 0 ug/ml
Counter-ions that a name gives are not always drawn.
# growth inhibition by drug alone values compiled below
Measurement label: growth inhibition by drug alone

1) Cc1ccc(C(=O)N(CCCN)[C@@H](c2nc3cc(Cl)ccc3c(=O)n2Cc2ccccc2)C(C)C)cc1: 0.918
2) NC(=O)c1ccc(-c2nc(-c3ccccn3)c(-c3ccc4c(c3)OCO4)[nH]2)cc1: -0.221
3) O=c1[nH]nc(Sc2ncc([N+](=O)[O-])s2)n1-c1ccc2c(c1)OCCO2: -0.0796
4) CC[C@H](CO)Nc1nc(NCc2ccccc2)c2ncn(C(C)C)c2n1 [Roscovitine (Seliciclib, CYC202)]: -0.0194
5) CC(C)CC(=O)Nc1n[nH]c2c1CN(C(=O)C1CCN(C)CC1)C2(C)C: 0.546
6) O=C1c2ccccc2-c2nc3nonc3nc21: -0.571
7) Cc1ccc(-c2csc3ncnc(SCCC(=O)O)c23)cc1: -0.333
8) Cc1cnc(NC(=O)Nc2cc(Br)c(C)cc2OC[C@@H]2CNCCO2)cn1: 0.0523
9) O=C1c2ccccc2C(=O)c2c(NCCc3ccc(O)cc3)ccc(NCCc3ccc(O)cc3)c21: -0.77
10) CC1=C(/C=C/C(C)=C/C=C/C(C)=C/C(=O)Nc2ccc(O)cc2)C(C)(C)CCC1 [Fenretinide]: -0.388
11) CO[C@@H](C(=O)N1Cc2[nH]nc(NC(=O)c3ccc(N4CCN(C)CC4)cc3)c2C1)c1ccccc1: 0.138
12) COc1ccc(-c2ccc3c(N4CCOC[C@@H]4C)nc(N4CCOC[C@@H]4C)nc3n2)cc1CO: 0.617
13) Cc1cc(O)c2c(c1)C(=O)c1cccc(O)c1C2=O: -0.0635
14) Cc1ccc(Nc2nccc(N(C)c3ccc4c(C)n(C)nc4c3)n2)cc1S(N)(=O)=O: 0.117
15) O=C(O)CCc1ccc(NCc2cccc(Oc3ccccc3)c2)cc1: -0.259
16) COc1c(C)c2c(c(O)c1C/C=C(\C)CCC(=O)O)C(=O)OC2 [Mycophenolic (Mycophenolate)]: 0.409
17) CCc1cc(-c2n[nH]c(C)c2-c2ccc3c(c2)OCCO3)c(O)cc1O: -0.563
18) CC/C(=C(\c1ccccc1)c1ccc(OCCN(C)C)cc1)c1ccccc1 [Tamoxifen Citrate (Nolvadex)]: 0.551
19) Cc1cnc(Nc2ccc(OCCN3CCCC3)cc2)nc1Nc1cccc(S(=O)(=O)NC(C)(C)C)c1: -0.338
20) COc1cc2nccc(Oc3ccc(NC(=O)C4(C(=O)Nc5ccc(F)cc5)CC4)cc3)c2cc1OC [XL-184 free base (Cabozantinib)]: -0.233
21) CNC(=O)c1cc(Oc2ccc(NC(=O)Nc3cc(C(C)(C)C)nn3-c3ccc4ncccc4c3)c(F)c2)ccn1 [DCC-2036 (Rebastinib)]: -0.428
22) CC[C@]1(O)C[C@H]2CN(CCc3c([nH]c4ccccc34)[C@@](C(=O)OC)(c3cc4c(cc3OC)N(C=O)[C@H]3[C@@](O)(C(=O)OC)[C@H](OC(C)=O)[C@]5(CC)C=CCN6CC[C@]43[C@@H]65)C2)C1: 0.938
23) Cn1cnc([N+](=O)[O-])c1Sc1ncnc2[nH]cnc12: -0.168
24) Cc1ccc([C@@H]2O[C@H](CO)[C@@H](O)[C@H](O)[C@H]2O)cc1Cc1ccc(-c2ccc(F)cc2)s1: 0.00364
25) COC(=O)C1=C(C)NC(C)=C(C(=O)OCCCN2CCC(c3ccccc3)(c3ccccc3)CC2)[C@H]1c1cccc([N+](=O)[O-])c1 [S-(+)-Niguldipine hydrochloride]: -0.336
26) C[C@]12CC[C@@H]3c4ccc(O)cc4CC[C@H]3[C@@H]1CCC2=O: -0.445
27) COc1cc(Nc2ncc(F)c(Nc3ccc4c(n3)N(COP(=O)(O)O)C(=O)C(C)(C)O4)n2)cc(OC)c1OC: -0.0605
28) Nc1ncn([C@H]2C[C@H](O)[C@@H](CO)O2)c(=O)n1: 0.168
29) O=c1oc2c(O)c(O)cc3c(=O)oc4c(O)c(O)cc1c4c23: -0.107
30) O=C(c1cc(Cc2n[nH]c(=O)c3ccccc23)ccc1F)N1CCN(C(=O)C2CC2)CC1: -0.228
31) CN1CC[C@H](c2c(O)cc(O)c3c(=O)cc(-c4ccccc4Cl)oc23)[C@H](O)C1 [Flavopiridol hydrochloride]: 0.504
32) CCC(C)n1ncn(-c2ccc(N3CCN(c4ccc(OCC5COC(Cn6cncn6)(c6ccc(Cl)cc6Cl)O5)cc4)CC3)cc2)c1=O (configuration not stated) [Itraconazole (Sporanox)]: -0.037
